Tested on: PROVIDENCIA STUARTII CMX 640
measured endpoint: MIC

INSERT INTO assay_data (molecule, system_under_test, measured_endpoint, result_value) VALUES
  ('CC[C@H]1OC(=O)[C@H](C)C(=O)[C@H](C)[C@@H](O[C@@H]2O[C@H](C)C[C@H](N(C)C)[C@H]2O)[C@](C)(OC)C[C@@H](C)C2=N[C@@H]3CN(Cc4ccc(Cl)cc4)C[C@@H]3N3C(=O)O[C@@]1(C)[C@H]3[C@H]2C [Example 24]', 'PROVIDENCIA STUARTII CMX 640', 'MIC', '> 100 µg/mL'),
  ('CC[C@H]1OC(=O)[C@H](C)C(=O)[C@H](C)[C@@H](O[C@@H]2O[C@H](C)C[C@H](N(C)C)[C@H]2O)[C@](C)(OC)C[C@@H](C)C2=NC3CN(CCN(C)C)CC3N3C(=O)O[C@@]1(C)[C@H]3[C@H]2C (stereo partly shown) [Example 129]', 'PROVIDENCIA STUARTII CMX 640', 'MIC', '> 100 µg/mL'),
  ('CC[C@H]1OC(=O)[C@H](C)C(=O)[C@H](C)[C@@H](O[C@@H]2O[C@H](C)C[C@H](N(C)C)[C@H]2O)[C@](C)(OC)C[C@@H](C)C2=NC3CN(C(C)c4ccccc4)CC3N3C(=O)O[C@@]1(C)[C@H]3[C@H]2C (stereo partly shown) [Example 113]', 'PROVIDENCIA STUARTII CMX 640', 'MIC', '> 100 µg/mL'),
  ('CC[C@H]1OC(=O)[C@H](C)C(=O)[C@H](C)[C@@H](O[C@@H]2O[C@H](C)C[C@H](N(C)C)[C@H]2O)[C@](C)(OC)C[C@@H](C)C2=NC3CN(CCc4ccccc4[N+](=O)[O-])CC3N3C(=O)O[C@@]1(C)[C@H]3[C@H]2C (stereo partly shown) [Example 119]', 'PROVIDENCIA STUARTII CMX 640', 'MIC', '> 100 µg/mL');
